Ref: paper PMC9182007

Assay: HPLC on immobilized artificial membrane column (HPLCIAM)
Type: physicochemical
Settings: Table S9, external group
Reported log kIAM by item:
parameter measured: log kIAM

# compound, recorded number
records = [
    ("CN(C)CCC=C1c2ccccc2COc2ccccc21 [doxepin]", 0.45),
    ("CC(C)(C)NC[C@H](O)COc1nsnc1N1CCOCC1 [timolol]", 0.46),
    ("CNCC[C@H](Oc1cccc2ccccc12)c1cccs1 [duloxetine]", 0.45),
    ("CC(C)C[C@H](CN)CC(=O)O [pregabalin]", 0.22),
    ("CCOC(=O)C1=C(C)NC(C)=C(C(=O)OC)C1c1cccc([N+](=O)[O-])c1 (stereo not shown) [nitrendipine]", 0.47),
    ("CO[C@H]1/C=C/O[C@@]2(C)Oc3c(C)c(O)c4c(O)c(c(/C=N/N5CCN(C)CC5)c(O)c4c3C2=O)NC(=O)/C(C)=C\\C=C\\[C@H](C)[C@H](O)[C@@H](C)[C@@H](O)[C@@H](C)[C@H](OC(C)=O)[C@@H]1C [rifampicin]", 0.92),
    ("CC1COc2c(N3CCN(C)CC3)c(F)cc3c(=O)c(C(=O)O)cn1c23 (stereo not shown) [ofloxacin]", 0.49),
    ("NCC1(CC(=O)O)CCCCC1 [gabapentin]", 0.23),
    ("Nc1cc(N2CCCCC2)nc(N)[n+]1[O-] [minoxidil]", 0.29),
    ("CC[C@@H](CO)NCCN[C@@H](CC)CO [ethambutol]", 0.34),
    ("CN(C)CCCC1(c2ccc(F)cc2)OCc2cc(C#N)ccc21 (stereo not shown) [citalopram]", 0.50),
    ("NC(=O)N1c2ccccc2CC(=O)c2ccccc21 [oxcarbamazepine]", 0.35),
    ("O=C(c1ccccc1)c1ccc2n1CCC2C(=O)O (stereo not shown) [ketorolac]", 0.38),
    ("CCS(=O)(=O)CCn1c([N+](=O)[O-])cnc1C [tinidazole]", 0.30),
    ("CCC1(c2ccccc2)C(=O)NCNC1=O [primidone]", 0.31),
    ("CCCc1cc(=O)[nH]c(=S)[nH]1 [propylthiouracil]", 0.18),
    ("CN(C)CCC=C1c2ccccc2CCc2ccccc21 [amitriptyline]", 0.19),
    ("CCCCN1CCCCC1C(=O)Nc1c(C)cccc1C (stereo not shown) [bupivacaine]", 0.48),
    ("CCC(C)n1ncn(-c2ccc(N3CCN(c4ccc(OCC5COC(Cn6cncn6)(c6ccc(Cl)cc6Cl)O5)cc4)CC3)cc2)c1=O (stereo not shown) [itraconazole]", 0.79),
]
